- Tested on: Bacteroides dorei
- ASSAY_COMMENT: growth AUC relative to DMSO control (median of replicates) (fraction); higher = more growth (less inhibition), active = hit call of the paper
- CONDITION_DETAILS: 20 µM; 24 h
Quick reference for growth AUC among some compounds
Hey, just send me the number, nothing else.

A selection of reference data follows.
{"COMPOUND": "COC(=O)CC(NC(=O)[C@@H](NC(=O)OC(C)C)C(C)C)c1ccc(Cl)cc1 (stereo partly drawn)", "OBSERVED_VALUE": 1.02}
{"COMPOUND": "Cc1ccc(C(C)NC(=O)[C@@H](NC(=O)OC(C)C)C(C)C)cc1 (stereo partly drawn)", "OBSERVED_VALUE": 1.01}
{"COMPOUND": "Cc1cc(C)c(C2=C(O)C3(CCCC3)OC2=O)c(C)c1", "OBSERVED_VALUE": 1.01}
{"COMPOUND": "CCCOC(=O)c1ccc(O)cc1", "OBSERVED_VALUE": 1.02}
{"COMPOUND": "Cc1nn(C)c(Oc2ccccc2)c1/C=N/OCc1ccc(C(=O)OC(C)(C)C)cc1", "OBSERVED_VALUE": 0.974}
{"COMPOUND": "COC(=O)[C@@H](C)Oc1ccc(Oc2ncc(C(F)(F)F)cc2Cl)cc1", "OBSERVED_VALUE": 0.984}
{"COMPOUND": "O=C(O)Cc1cccc2ccccc12", "OBSERVED_VALUE": 0.971}
{"COMPOUND": "c1ccc2c(c1)ccc1ccccc12", "OBSERVED_VALUE": 0.996}

stdin: Please look up its growth AUC: Cc1cccc(C)c1N(CC(=O)O)C(=O)CS(=O)(=O)[O-].[Na+]
stdout: 0.998

stdin: Field entry: CCC/C(=N\OCC(C)Oc1ccc(Cl)cc1)C1=C(O)CC(C2CCCSC2)CC1=O (stereo not drawn)
stdout: 1

stdin: Please give the result for COc1ccc(Oc2ccc(NC(=O)N(C)C)cc2)cc1 too.
stdout: 0.98

stdin: What do we get for CCS(=O)(=O)c1nnc(N(C)C(=O)NC)s1 ?
stdout: 1.01

stdin: # iterate: C[C@@]1(c2ccccc2)NC(=O)N(Nc2ccccc2)C1=O
stdout: 1

stdin: What would you report for C=O ?
stdout: 1.02

stdin: Let us now turn to Nc1ccc(O)cc1
stdout: 0.998

stdin: Same question for CC(C)c1nn(C(=O)NC(C)(C)C)c(=O)n1N please.
stdout: 1.02

stdin: Again, but for N#Cc1c(N)nc(NC2CC2)nc1N
stdout: 1.02

stdin: Same again, this time with CO/N=C(/C(=O)O)c1ccccc1CO/N=C(\C)c1cccc(C(F)(F)F)c1
stdout: 0.981

stdin: How about this compound: CCCC(C)(C)C(=O)Nc1ccc(Cl)cc1
stdout: 1.02

stdin: How about this compound: CCNc1nc(NC(C)(C)C)[nH]c(=O)n1
stdout: 1.01

stdin: Another: Oc1ccc2nc(-c3cscn3)[nH]c2c1
stdout: 0.997

stdin: Now consider CCOC(=O)Cc1[nH]nc2ccc(Cl)cc12 and answer again.
stdout: 0.996

stdin: What do you get for Cc1[nH]n(C)c(=O)c1C(=O)c1ccc(C(F)(F)F)cc1S(C)(=O)=O ?
stdout: 1.02
